FACS binding signal (read-out unnamed) values, listed per item
- target-or-system: T1, human claudin 18.2 (hCLDN18.2) (human)
- T1 construct: also called CLDN18 splice variant 2; HEK293-hCLDN18.2
- measurement-protocol: flow cytometry on HEK293-hCLDN18.2 cells; 1 ug/mL; not heat treated
Enter a number only.

binder | result
h5M9V10 humanized antibody (h5M9 VHv4 / h5M9 VLv1) (antibody, human IgG1, kappa, V domains shown, Human IgG1 (G1m17) / kappa) VH: QVQLKESGPGLVAPSETLSITCTVSGFSLTTYGVQWVRQPPGKGLEWLGAIWAGGNTNYNSALMSRLTISKDNSKSQVSLKMSSLTAADTAIYYCAKGGYGNAMDYWGQGTLVTVSS VL: DIVMTQSPSSLAVSLGERATMNCKSSQSLLNSGNQKNYLTWYQQKPGQPPKLLIYWASTRESGVPDRFSGSGSGTDFTLTISSVQAEDLAVYYCQNDYFFPFTFGQGTKLEIKR | 316
h5M9v9 humanized antibody (h5M9 VHv3 / h5M9 VLv3) (antibody, V domains shown, Human IgG1 (G1m17) heavy and human kappa light constant regions) VH: QVQLKESGPGLVAPSETLSITCTVSGFSLTTYGVQWVRQPPGKGLEWLGAIWAGGNTNYNSALMSRLTISKDNSKSQVSLKMSSVTAADTAIYYCAKGGYGNAMDYWGQGTLVTVSS VL: DIVMTQSPSSLAVSLGERVTMNCKSSQSLLNSGNQKNYLTWYQQKPGQPPKLLIYWASTRESGVPDRFTGSGSGTDFTLTISSVQAEDLAVYYCQNDYFFPFTFGSGTKLEIK | 291
h5M9V7 humanized antibody (h5M9 VHv3 / h5M9 VLv1) (antibody, human IgG1, kappa, V domains shown, Human IgG1 (G1m17) / kappa) VH: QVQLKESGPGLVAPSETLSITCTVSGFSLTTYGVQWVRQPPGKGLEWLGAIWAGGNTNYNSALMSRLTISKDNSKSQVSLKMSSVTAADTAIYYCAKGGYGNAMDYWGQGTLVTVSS VL: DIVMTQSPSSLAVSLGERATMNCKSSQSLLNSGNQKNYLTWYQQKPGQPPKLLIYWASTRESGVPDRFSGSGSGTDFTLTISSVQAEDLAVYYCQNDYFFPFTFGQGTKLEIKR | 296
175D10 human-mouse chimeric positive control antibody (antibody, V domains shown, Self-made, expressed in CHOS cells, Protein A purified; also called Benchmark) VH: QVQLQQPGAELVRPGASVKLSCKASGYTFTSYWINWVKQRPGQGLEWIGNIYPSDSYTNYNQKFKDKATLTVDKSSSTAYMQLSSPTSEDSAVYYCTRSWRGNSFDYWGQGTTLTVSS VL: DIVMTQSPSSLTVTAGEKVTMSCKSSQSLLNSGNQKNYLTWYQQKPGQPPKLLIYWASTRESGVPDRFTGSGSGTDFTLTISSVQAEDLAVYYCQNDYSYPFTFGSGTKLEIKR | 318
h5M9V12 humanized antibody (h5M9 VHv4 / h5M9 VLv3) (antibody, human IgG1, kappa, V domains shown, Human IgG1 (G1m17) / kappa) VH: QVQLKESGPGLVAPSETLSITCTVSGFSLTTYGVQWVRQPPGKGLEWLGAIWAGGNTNYNSALMSRLTISKDNSKSQVSLKMSSLTAADTAIYYCAKGGYGNAMDYWGQGTLVTVSS VL: DIVMTQSPSSLAVSLGERVTMNCKSSQSLLNSGNQKNYLTWYQQKPGQPPKLLIYWASTRESGVPDRFTGSGSGTDFTLTISSVQAEDLAVYYCQNDYFFPFTFGSGTKLEIKR | 419

Would you kindly look at the next entry?
Request: Name the reported FACS binding signal (read-out unnamed) value associated with the binder 5-M9 human-mouse chimeric monoclonal antibody (antibody, human IgG1, V domains shown, Mouse V regions fused to human IgG1 (G1m17) heavy chain constant region and human kappa light chain constant region; also called 5-M9-A; Chi 5-M9) VH: QVQLKESGPVLVAPSQSLSITCTVSGFSLTTYGVQWVRQPPGKGLEWLGAIWAGGNTNYNSALMSRLSISKDNSKSQVFLKMNSLQTDDTAIYYCAKGGYGNAMDYWGQGTSVTVAS VL: DIVMTQSPSSLTVTAGERVTMSCKSSQSLLNSGNQKNYLTWYQQKSGQPPKLLIYWASTRESGVPDRFTGSGSGTDFTLTISSVQAEDLAVYYCQNDYFFPFTFGSGTKLEIK
Response: 341
